Test system: P12-Ichikawa
protocol-summary: AUC of viability dose-response curve (% viability x log10 dose units); higher = less sensitive
test-conditions: RPMI 5 mM glucose + 10% dialyzed FBS; 48 h
Consider the following molecules and their measured AUC of viability dose-response curve readings.
Reply with the value as a number alone.

* CN1[C@@H]2CCC[C@H]1C[C@@H](NC(=O)c1nn(C)c3ccccc13)C2.Cl | 465

[in] Would you mind telling me what AUC of viability dose-response curve value was observed for NC(=O)c1cccc(-c2cccc(OC(=O)NC3CCCCC3)c2)c1 ?
[out] 380

[in] Can you check C#CCN(C)[C@H](C)Cc1ccccc1 next?
[out] 402

[in] Can you check CC/1=C/N([C@@H]2C[C@@H](O)[C@H](CO)O2)C(=O)NC1=O next?
[out] 338

[in] Can you check Clc1ccc(C2(c3ccc(-c4cn[nH]c4)cc3)CCNCC2)cc1 next?
[out] 390

[in] Can you check CCN1CCCC1CNC(=O)c1cc(S(=O)(=O)CC)c(N)cc1OC (stereo not given) next?
[out] 469

[in] Can you check COc1cc(C(C)C)c(Oc2cnc(NC(CO)CO)nc2N)cc1I next?
[out] 452

[in] Can you check Cc1ccc(-n2nc(C(C)(C)C)cc2NC(=O)Nc2ccc(OCCN3CCOCC3)c3ccccc23)cc1 next?
[out] 473

[in] Can you check Cc1ccc(C(C)(O)c2nc3ccccc3s2)c(C)c1 (stereo not given) next?
[out] 426

[in] Can you check CC(C)C[C@H](CN)CC(=O)O next?
[out] 455

[in] Can you check COC1=CC=C2Nc3cc(Cl)ccc3C(N=C3C=C(CN4CCCC4)C(=O)C(CN4CCCC4)=C3)=C2N1 next?
[out] 469

[in] Can you check ClC1=CC=C(CCCOC/2=N/NC(=O)C(=C2NCC3=CN=CC=C3)/Br)C=C1 next?
[out] 382

[in] Can you check O=C1Nc2ccccc2/C1=C1\Nc2ccccc2C1=O next?
[out] 471

[in] Can you check NC(=O)N1c2ccccc2CC(=O)c2ccccc21 next?
[out] 464

[in] Can you check Cc1ccc(NC(=O)C2(c3ccc4c(c3)OC(F)(F)O4)CC2)nc1-c1cccc(C(=O)O)c1 next?
[out] 260

[in] Can you check O=c1cc(O)c(Cl)c[nH]1 next?
[out] 417

[in] Can you check O=C(Cc1cccc(OC(F)(F)F)c1)Nc1ccc(CCCCc2nnc(NC(=O)Cc3ccccn3)s2)nn1 next?
[out] 387

[in] Can you check C[N]1C=NC=C1[C@@](N)(C2=CC=C(Cl)C=C2)C3=CC=C4N(C)C(=O)\C=C(\C5=CC=CC(=C5)Cl)C4=C3 next?
[out] 376

[in] Can you check COc1cc2c(Nc3ccc(NC(=O)c4ccccc4)cc3)ncnc2cc1OCCCN1CCOCC1 next?
[out] 386

[in] Can you check COc1cc(N2CCC(C(N)=O)CC2)ccc1Nc1nc(N)c(Cl)c(Nc2ccccc2[S+](=O)([O-])C(C)C)n1 next?
[out] 410

----------
System: P12-Ichikawa
protocol-summary: cell viability relative to DMSO control; higher = less cytotoxic
test-conditions: RPMI 5 mM glucose + 10% FBS; 48 h; 5.12 µM
Consider the following compounds and their measured cell viability readings.
Your answer should be a plain number; it is taken to be in %.

See these solved cases before continuing.
- CCCCN(CCCC)CCC(O)c1cc2c(Cl)cc(Cl)cc2c2cc(C(F)(F)F)ccc12 (stereo not drawn): 132
- COCCOC(=O)C/1=C(C)/NC/2=C(C1C3=CC=CC(=C3)O)/C(=O)CC(C2)C4=C(OC)C=CC=C4 (stereo not drawn): 96.3
- Clc1ccc(C2(c3ccc(-c4cn[nH]c4)cc3)CCNCC2)cc1: 65.9

Consider the record given below.
[in] Would you mind telling me what cell viability value was observed for CNC(=O)[C@H](Cc1ccccc1)NC(=O)[C@H](CC(C)C)[C@H](CSc1cccs1)C(=O)NO ?
[out] 71
